Data provenance: patent US7067619B2

Tested on: α5β1 integrin
Method description: Inhibition of α5β1-mediated cell attachment to fibronectin
Type: cell-based, human
Test conditions: MG 63 cells; read-out: IC50 of inhibition of attachment of MG 63 cells to fibronectin
pIC50: −log10 of the molar value.

Substance: CRGDGWC [A*CRGDGWC*G]
pIC50: 5.00

---

Test system: α5β1 integrin
Method description: Inhibition of α5β1-mediated cell attachment to fibronectin
Assay type: cell-based, human
Test conditions: B2/a27 cells (human α5, CHO β1); FIG. 11; read-out: IC50 of inhibition of attachment of B2/a27 cells to fibronectin
pIC50: −log10 of the molar value.

Substance: CRGDGWC [A*CRGDGWC*G]
pIC50: 5.22
